Target: α4β2 nAChR (Homo sapiens (Human), UniProt P17787+P43681)
Sequence (P43681 29-627 limits assumed): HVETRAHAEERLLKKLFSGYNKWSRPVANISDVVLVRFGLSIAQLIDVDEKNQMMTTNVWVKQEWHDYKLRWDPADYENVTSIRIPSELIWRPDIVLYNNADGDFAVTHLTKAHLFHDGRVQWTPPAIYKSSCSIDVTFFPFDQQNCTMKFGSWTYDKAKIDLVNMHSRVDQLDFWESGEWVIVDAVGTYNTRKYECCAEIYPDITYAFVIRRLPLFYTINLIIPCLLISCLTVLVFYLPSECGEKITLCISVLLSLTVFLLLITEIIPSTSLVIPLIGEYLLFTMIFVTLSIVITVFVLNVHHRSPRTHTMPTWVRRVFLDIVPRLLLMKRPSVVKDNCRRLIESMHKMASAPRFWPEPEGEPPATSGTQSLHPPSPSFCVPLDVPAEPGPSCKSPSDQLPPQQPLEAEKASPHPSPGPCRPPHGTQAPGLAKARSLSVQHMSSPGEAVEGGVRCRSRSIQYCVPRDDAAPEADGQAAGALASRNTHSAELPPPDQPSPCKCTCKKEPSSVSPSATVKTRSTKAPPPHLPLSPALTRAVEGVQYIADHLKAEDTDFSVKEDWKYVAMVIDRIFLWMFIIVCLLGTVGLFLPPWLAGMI
Sequence (P17787 26-502 limits assumed): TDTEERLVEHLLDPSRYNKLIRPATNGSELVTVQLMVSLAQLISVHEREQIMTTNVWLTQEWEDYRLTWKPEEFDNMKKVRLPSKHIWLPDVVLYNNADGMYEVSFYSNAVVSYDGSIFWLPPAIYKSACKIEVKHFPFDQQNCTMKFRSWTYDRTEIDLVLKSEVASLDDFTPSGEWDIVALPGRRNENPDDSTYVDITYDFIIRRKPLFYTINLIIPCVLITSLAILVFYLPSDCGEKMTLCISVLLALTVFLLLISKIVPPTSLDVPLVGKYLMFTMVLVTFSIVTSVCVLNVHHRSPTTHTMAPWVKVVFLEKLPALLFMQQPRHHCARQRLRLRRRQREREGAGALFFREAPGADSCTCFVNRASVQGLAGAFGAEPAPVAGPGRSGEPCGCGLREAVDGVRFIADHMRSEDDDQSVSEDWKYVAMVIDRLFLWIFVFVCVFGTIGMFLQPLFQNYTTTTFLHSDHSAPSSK
Assay type: binding
Conditions: ratio of Ki values

| molecule | target | Ratio α3β4/α4β2 |
| --- | --- | --- |
| Cl.O=c1cc(CCc2ccccc2)cc2n1CC1CNC[C@@H]2C1 [?] | α4β2 nAChR (Homo sapiens (Human), UniProt P17787+P43681) | 21.7 |
| Cl.NC(=O)c1cc2n(c(=O)c1)CC1CNC[C@@H]2C1 (single isomer, unassigned; (-)) [Compound 142, (−)4-(carboxyamido)cytisine] | α4β2 nAChR (Homo sapiens (Human), UniProt P17787+P43681) | 36.2 |
| O=c1cc(N2CCNCC2)cc2n1CC1CNC[C@@H]2C1 (single isomer, unassigned; (+)) [Compound 90, (+)4-(N-piperazinyl)cytisine] | α4β2 nAChR (Homo sapiens (Human), UniProt P17787+P43681) | 14.1 |

====

Biological target: (α4)2(β2)3 nAChRs (Homo sapiens (Human), UniProt P17787+P43681)
Test: Maximal gating efficacy on (α4)2(β2)3 nAChRs in Xenopus oocytes, two electrode voltage clamp
Type: cell-based
Conditions: (α4)2(β2)3, high sensitivity receptors; maximal current relative to 1 mM ACh
Label y when Relative efficacy (ACh) >= 0.03; otherwise n.

| molecule | classification |
| --- | --- |
| C#Cc1cc2n(c(=O)c1)CC1CNC[C@@H]2C1.Cl (single isomer, unassigned; (-)) [Compound 127, (−)4-(acetylenyl)cytisine] | n |
| Cl.O=c1c(C(F)(F)F)c(Br)cc2n1CC1CNC[C@@H]2C1 (single isomer, unassigned; (-)) [Compound 162, (−)3-(Trifluoromethyl)-4-bromocytisine] | y |
| O=c1cc(O)cc2n1CC1CNC[C@@H]2C1 (single isomer, unassigned; (+)) [Compound 67, (+)4-Hydroxycytisine] | n |
| COc1cc2n(c(=O)c1)CC1CNC[C@@H]2C1 (single isomer, unassigned; (-)) [Compound 69, (−)4-Methoxycytisine] | n |
| Cl.O=c1cc(-c2c(F)c(F)c(F)c(F)c2F)cc2n1CC1CNC[C@@H]2C1 (single isomer, unassigned; (-)) [Compound 75, (−)4-(Perfluorophenyl)cytisine] | y |
| O=c1cc(-c2ccncc2)cc2n1CC1CNC[C@@H]2C1 (single isomer, unassigned; (-)) [Compound 103, (−)4-(4-Pyridinyl)cytisine] | n |
| O=c1cc(-c2ccccn2)cc2n1CC1CNC[C@@H]2C1 (single isomer, unassigned; (-)) [Compound 101, (−)4-(2-Pyridinyl)cytisine] | n |
| O=c1cccc2n1C[C@@H]1CNC[C@H]2C1 [Cytisine, cytisine] | n |
| CCNc1cc2n(c(=O)c1)CC1CNCC2C1 (single isomer, unassigned; (+)) [Compound 87, (+)4-(N-ethylamino)cytisine] | n |
| N#Cc1cc2n(c(=O)c1)CC1CNC[C@@H]2C1 (single isomer, unassigned; (-)) [Compound 140, (−)4-Cyanocytisine] | n |
| COC(=O)c1cc2n(c(=O)c1)CC1CNC[C@@H]2C1 (single isomer, unassigned; (-)) [Compound 119, (−)4-carboxymethycytisine] | n |
| CNc1cc2n(c(=O)c1)CC1CNC[C@@H]2C1 (single isomer, unassigned; (+)) [Compound 84, (+)4-(N-Methylamino)cytisine] | y |

====

Target: α3β4 nAChR (Homo sapiens (Human), UniProt P30926+P32297)
Sequence (P32297 32-505 limits assumed): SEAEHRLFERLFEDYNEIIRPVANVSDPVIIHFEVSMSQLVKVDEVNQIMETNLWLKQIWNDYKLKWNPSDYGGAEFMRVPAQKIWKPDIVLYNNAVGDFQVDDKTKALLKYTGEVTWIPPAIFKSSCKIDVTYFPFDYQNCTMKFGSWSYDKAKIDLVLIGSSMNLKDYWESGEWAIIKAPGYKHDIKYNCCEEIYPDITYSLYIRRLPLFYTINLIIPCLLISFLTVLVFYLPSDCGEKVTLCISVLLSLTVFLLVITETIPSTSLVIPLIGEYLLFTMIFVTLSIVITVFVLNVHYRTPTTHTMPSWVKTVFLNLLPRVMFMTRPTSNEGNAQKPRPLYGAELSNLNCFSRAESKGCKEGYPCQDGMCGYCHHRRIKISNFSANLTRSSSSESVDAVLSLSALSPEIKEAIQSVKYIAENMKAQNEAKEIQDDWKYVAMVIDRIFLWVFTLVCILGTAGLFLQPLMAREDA
Sequence (P30926 22-498 limits assumed): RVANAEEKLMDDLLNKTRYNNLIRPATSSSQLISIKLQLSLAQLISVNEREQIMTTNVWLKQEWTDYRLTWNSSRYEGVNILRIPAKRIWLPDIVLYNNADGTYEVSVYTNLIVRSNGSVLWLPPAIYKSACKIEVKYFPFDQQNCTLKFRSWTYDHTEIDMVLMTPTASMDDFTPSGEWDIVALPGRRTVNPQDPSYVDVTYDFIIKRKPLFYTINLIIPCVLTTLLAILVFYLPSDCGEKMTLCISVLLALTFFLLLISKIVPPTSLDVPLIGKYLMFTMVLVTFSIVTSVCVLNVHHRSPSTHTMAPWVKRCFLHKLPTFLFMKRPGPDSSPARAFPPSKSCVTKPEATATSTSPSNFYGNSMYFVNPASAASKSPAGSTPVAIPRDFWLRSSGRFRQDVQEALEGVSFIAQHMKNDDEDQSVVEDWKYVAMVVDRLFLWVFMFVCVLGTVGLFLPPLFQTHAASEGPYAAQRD
Conditions: human α3β4 in HEK 293, 0.5 nM [3H]-epibatidine; range printed after the value
Protocol: HEK 293 cells were grown in Dulbecco's modified Eagle medium supplemented with 10% fetal bovine serum, 1% L-Glutamine, 100 units/ml penicillin G, and 100 μg/streptomycin in a humidified atmosphere containing 10% CO2. […] After incubation, the membranes of HEK cells transfected with α4β2* or α3β4 subtypes were washed by filtration on GFC filters with ice-cold PBS. […] [^3H]-epibatidine binding was determined by means of liquid scintillation counting in a beta counter. […]

| smiles.entry | Ki |
| --- | --- |
| O=c1cccc2n1C[C@@H]1CNC[C@H]2C1 | 103 nM |

====

Biological target: α3β4 nAChRs (Homo sapiens (Human), UniProt P30926+P32297)
Test: Maximal gating efficacy on α3β4 nAChRs in Xenopus oocytes, two electrode voltage clamp
Type: cell-based
Details: maximal current relative to 1 mM ACh
Consider the following compounds and their measured Relative efficacy (ACh) readings.

| compound | Relative efficacy (ACh) |
| --- | --- |
| COc1cc2n(c(=O)c1)CC1CNC[C@@H]2C1 (single isomer, unassigned; (-)) [Compound 69, (−)4-Methoxycytisine] | 0.044 ± 0.059 |
| O=c1cc(-c2ccccn2)cc2n1CC1CNC[C@@H]2C1 (single isomer, unassigned; (-)) [Compound 101, (−)4-(2-Pyridinyl)cytisine] | 0.066 ± 0.056 |
| O=c1cccc2n1C[C@@H]1CNC[C@H]2C1 [Cytisine, cytisine] | 0.54 ± 0.01 |
| Nc1cc2n(c(=O)c1Br)CC1CNCC2C1 (single isomer, unassigned; (+)) [BS71, (+)-(3-bromo-4-amino)cytisine] | 0.632 ± 0.067 |
| O=c1cc(-c2ccncc2)cc2n1CC1CNC[C@@H]2C1 (single isomer, unassigned; (-)) [Compound 103, (−)4-(4-Pyridinyl)cytisine] | 0.016 ± 0.010 |
| CC(=O)Nc1cc2n(c(=O)c1)CC1CNC[C@@H]2C1.Cl (single isomer, unassigned; (+)) [Compound 94, (+)4-(N-acetylamino)cytisine] | 0.055 ± 0.047 |
| CCNc1cc2n(c(=O)c1)CC1CNCC2C1 (single isomer, unassigned; (+)) [Compound 87, (+)4-(N-ethylamino)cytisine] | 0.010 ± 0.009 |
| Cl.O=c1cc(-c2c(F)c(F)c(F)c(F)c2F)cc2n1CC1CNC[C@@H]2C1 (single isomer, unassigned; (-)) [Compound 75, (−)4-(Perfluorophenyl)cytisine] | 0.120 ± 0.039 |
| Cc1cc2n(c(=O)c1)CC1CNC[C@@H]2C1.Cl (single isomer, unassigned; (-)) [Compound 110, (−)4-Methylcytisine] | 0.0708 ± 0.059 |
| O=c1cc(Cl)cc2n1CC1CNC[C@@H]2C1 (single isomer, unassigned; (-)) [Compound 60, (−)4-Chlorocytisine] | 0.133 ± 0.017 |
| C#Cc1cc2n(c(=O)c1)CC1CNC[C@@H]2C1.Cl (single isomer, unassigned; (-)) [Compound 127, (−)4-(acetylenyl)cytisine] | 0.165 ± 0.064 |
| N#Cc1cc2n(c(=O)c1)CC1CNC[C@@H]2C1 (single isomer, unassigned; (-)) [Compound 140, (−)4-Cyanocytisine] | 0.172 ± 0.064 |

====

Target: α4β2 nAChR (Homo sapiens (Human), UniProt P17787+P43681)
Format: binding
Conditions: ratio of Ki values
Recorded Ratio α3β4/α4β2, one value per entry.

| compound | Ratio α3β4/α4β2 |
| --- | --- |
| C=Cc1cc2n(c(=O)c1)CC1CNC[C@@H]2C1 (single isomer, unassigned; (+)) [Compound 116, (+)4-Vinylcytisine] | 100.1 |
| CCc1cc2n(c(=O)c1)CC1CNC[C@@H]2C1.Cl (single isomer, unassigned; (-)) [Compound 118, (−)4-Ethylcytisine] | 1901.3 |
| O=c1cc(Cl)cc2n1CC1CNC[C@@H]2C1 (single isomer, unassigned; (-)) [Compound 60, (−)4-Chlorocytisine] | 328.6 |
| O=c1cc(-c2ccccn2)cc2n1CC1CNC[C@@H]2C1 (single isomer, unassigned; (-)) [Compound 101, (−)4-(2-Pyridinyl)cytisine] | 1575.0 |
| NCC(=O)Nc1cc2n(c(=O)c1)CC1CNC[C@@H]2C1 [Compound 98] | 1670.0 |
| O=c1cc(Br)cc2n1CC1CNC[C@@H]2C1 (single isomer, unassigned; (-)) [Compound 62, (−)4-Bromocytisine] | 303.4 |

====

Molecular target: (α4)3(β2)2 nAChRs (Homo sapiens (Human), UniProt P17787+P43681)
Assay: Maximal gating efficacy on (α4)3(β2)2 nAChRs in Xenopus oocytes, two electrode voltage clamp
Format: cell-based
Conditions: (α4)3(β2)2, low sensitivity stoichiometry; maximal current relative to 1 mM ACh
Mark Satisfied for Relative efficacy (ACh) under 0.05, Not satisfied if at or over.

| molecule | target | classification |
| --- | --- | --- |
| CNc1cc2n(c(=O)c1)CC1CNC[C@@H]2C1 (single isomer, unassigned; (+)) [Compound 84, (+)4-(N-Methylamino)cytisine] | (α4)3(β2)2 nAChRs (Homo sapiens (Human), UniProt P17787+P43681) | Satisfied |
| Nc1cc2n(c(=O)c1Br)CC1CNCC2C1 (single isomer, unassigned; (+)) [BS71, (+)-(3-bromo-4-amino)cytisine] | (α4)3(β2)2 nAChRs (Homo sapiens (Human), UniProt P17787+P43681) | Not satisfied |
| CN(Cc1cc2n(c(=O)c1)CC1CNC[C@@H]2C1)Cc1cc2n(c(=O)c1)CC1CNC[C@@H]2C1 (stereo in doubt) | (α4)3(β2)2 nAChRs (Homo sapiens (Human), UniProt P17787+P43681) | Not satisfied |
| CC(=O)Nc1cc2n(c(=O)c1)CC1CNC[C@@H]2C1.Cl (single isomer, unassigned; (+)) [Compound 94, (+)4-(N-acetylamino)cytisine] | (α4)3(β2)2 nAChRs (Homo sapiens (Human), UniProt P17787+P43681) | Not satisfied |
| O=c1cc(Br)cc2n1CC1CNC[C@@H]2C1 (single isomer, unassigned; (-)) [Compound 62, (−)4-Bromocytisine] | (α4)3(β2)2 nAChRs (Homo sapiens (Human), UniProt P17787+P43681) | Not satisfied |
| CCNc1cc2n(c(=O)c1)CC1CNCC2C1 (single isomer, unassigned; (+)) [Compound 87, (+)4-(N-ethylamino)cytisine] | (α4)3(β2)2 nAChRs (Homo sapiens (Human), UniProt P17787+P43681) | Satisfied |
| C#Cc1cc2n(c(=O)c1)CC1CNC[C@@H]2C1.Cl (single isomer, unassigned; (-)) [Compound 127, (−)4-(acetylenyl)cytisine] | (α4)3(β2)2 nAChRs (Homo sapiens (Human), UniProt P17787+P43681) | Not satisfied |
| CCc1cc2n(c(=O)c1)CC1CNC[C@@H]2C1.Cl (single isomer, unassigned; (-)) [Compound 118, (−)4-Ethylcytisine] | (α4)3(β2)2 nAChRs (Homo sapiens (Human), UniProt P17787+P43681) | Satisfied |
| Cc1cc2n(c(=O)c1)CC1CNC[C@@H]2C1.Cl (single isomer, unassigned; (-)) [Compound 110, (−)4-Methylcytisine] | (α4)3(β2)2 nAChRs (Homo sapiens (Human), UniProt P17787+P43681) | Satisfied |
| O=c1c(Br)c(O)cc2n1CC1CNCC2C1 (single isomer, unassigned; (-)) [BS70, (−)-(3-bromo-4-hydroxy)cytisine] | (α4)3(β2)2 nAChRs (Homo sapiens (Human), UniProt P17787+P43681) | Not satisfied |
| c1cnc2cc3c(cc2n1)[C@@H]1CNC[C@H]3C1 [Varenicline, reference compound] | (α4)3(β2)2 nAChRs (Homo sapiens (Human), UniProt P17787+P43681) | Not satisfied |
